Measured values drawn from patent US10736902B2 for this set.

experiment: Half-life in human fresh blood at 37° C.; type: in vitro ADME; conditions: human, fresh whole blood, human blood; read-out: half-life in human blood
METRIC NAME: half-life

*Q* Reported half-life, compound O=S1(=O)CCOCN1 [C-2250, Tetrahydro1,4,5-oxathiazin-4-dioxide] : ____
*A* > 24 h

====

experiment: Half-life in human fresh blood at 37° C.; type: in vitro ADME; conditions: human, fresh whole blood, human fresh blood, 37° C.; calculated from measured concentrations; read-out: half-life (calculated) (converted)
METRIC NAME: half-life

*Q* Value lookup for half-life; key = O=S1(=O)CCOCN1 [C-2250, Tetrahydro1,4,5-oxathiazin-4-dioxide]
*A* ~40 h
